src = patent US4281121A

Test system: Helminthosporium gramineum
ASSAY_METHOD_TEXT: Seed treatment in open field tests for infestation by Helminthosporium gramineum (barley)
Type: in vivo
STUDY_CONDITIONS: winter barley; 50 g active agent/100 kg barley; about 8 months
Experimental: Seed treatment in open field tests for infestation by Helminthosporium gramineum The active agents were used in the form of pulverulent compositions. After about 8 months in case of winter barley and after about 3 months in case of summer barley the infested plants were counted and the activity was calculated by the formula [formula]

{"columns": ["CHEM_SMILES", "% activity / %"],
 "data": [
  ["CCS(=O)(=O)c1nnc(C(=O)N(C)C)s1", 99.5],
  ["CS(=O)(=O)c1nnc(C(N)=O)s1", 96],
  ["CCS(=O)(=O)c1nnc(C(=O)NC)s1", 100],
  ["CN(C)C(=O)c1nnc(S(C)(=O)=O)s1", 98],
  ["CC(C)CS(=O)(=O)c1nnc(C(N)=O)s1", 100],
  ["CNC(=O)c1nnc(S(C)(=O)=O)s1", 99.5]
]}
